- Tested on: RAW264.7
- protocol.notes: Antiarthritic activity against LPS-induced mouse RAW264.7 cells assessed as reduction in TNF-alpha level at 1 uM incubated for 24 hrs (Rvb 653.3 +/- 70.1 pg/L)
- Type: functional
Reported values of Activity for individual entries

- molecule: "CC(=O)CC(=O)C1CC(N)CCC1=O (stereo not drawn)"
  measured.target: "RAW264.7"
  Activity, pg/L: 332.9
- molecule: "CCCC1CCC(C2CCC(=O)C(C(=O)CC(C)=O)C2)CC1 (stereo not drawn)"
  measured.target: "RAW264.7"
  Activity, pg/L: 478.96
- molecule: "CC(=O)CC(=O)C1CC(NC(C)=O)CCC1=O (stereo not drawn)"
  measured.target: "RAW264.7"
  Activity, pg/L: 365.2
- molecule: "CC(=O)CC(=O)C1CC(C)CCC1=O (stereo not drawn)"
  measured.target: "RAW264.7"
  Activity, pg/L: 399.1
- molecule: "CN(Cc1cnc2nc(N)nc(N)c2n1)c1ccc(C(=O)N[C@@H](CCC(=O)O)C(=O)O)cc1 [METHOTREXATE]"
  measured.target: "RAW264.7"
  Activity, pg/L: 235.3
- molecule: "CC(=O)CC(=O)C1CC(O)CCC1=O (stereo not drawn)"
  measured.target: "RAW264.7"
  Activity, pg/L: 151.5
- molecule: "CCCCC1CCC(=O)C(C(=O)CC(C)=O)C1 (stereo not drawn)"
  measured.target: "RAW264.7"
  Activity, pg/L: 401.6
- molecule: "CC(=O)CC(=O)C1CC(Cl)CCC1=O (stereo not drawn)"
  measured.target: "RAW264.7"
  Activity, pg/L: 350.2

---

Listing of entries alongside the reported IC50.
- protocol.notes: Antiproliferative activity against rat Synovial cell assessed as inhibition of cell growth incubated for 48 hrs by CCK-8 assay
- Type: functional, cell-based

- compound: "CCC(C)(C)C1CCC(=O)C(C(=O)CC(C)=O)C1 (centres undefined)"
  IC50: "10.3 µM"
- compound: "COC(=O)C1CCC(=O)C(C(=O)CC(C)=O)C1 (centres undefined)"
  IC50: "16.6 µM"
- compound: "CC(=O)CC(=O)C1CC(C(=O)O)CCC1=O (centres undefined)"
  IC50: "5.31 µM"
- compound: "CC(=O)CC(=O)C1CC(N2C(=O)c3ccccc3C2=O)CCC1=O (centres undefined)"
  IC50: "5.96 µM"
- compound: "CCCCCC1CCC(=O)C(C(=O)CC(C)=O)C1 (centres undefined)"
  IC50: "5.08 µM"
- compound: "CC(=O)CC(=O)C1CC(NC(=O)OCc2ccccc2)CCC1=O (centres undefined)"
  IC50: "4.25 µM"
- compound: "CC(=O)CC(=O)C1CC(C2CCC3(CC2)OCCO3)CCC1=O (centres undefined)"
  IC50: "5.22 µM"
- compound: "CC(=O)CC(=O)C1CC(C)CCC1=O (centres undefined)"
  IC50: "3.32 µM"
- compound: "CCCC1CCC(C2CCC(=O)C(C(=O)CC(C)=O)C2)CC1 (centres undefined)"
  IC50: "3.51 µM"
- compound: "CC(=O)CC(=O)C1CC(N)CCC1=O (centres undefined)"
  IC50: "2.15 µM"
- compound: "CC(=O)CC(=O)C1CC(c2ccc(O)cc2)CCC1=O (centres undefined)"
  IC50: "7.94 µM"
- compound: "CCCCC1CCC(=O)C(C(=O)CC(C)=O)C1 (centres undefined)"
  IC50: "2.72 µM"
- compound: "CC(=O)CC(=O)C1CC(c2ccccc2)CCC1=O (centres undefined)"
  IC50: "3.95 µM"
- compound: "CC(=O)CC(=O)C1CC(C(C)(C)C)CCC1=O (centres undefined)"
  IC50: "6.43 µM"
- compound: "CC(=O)CC(=O)C1CC(C2=CCCCC2)CCC1=O (centres undefined)"
  IC50: "5.43 µM"
- compound: "CC(=O)CC(=O)C1CC(NC(=O)OC(C)(C)C)CCC1=O (centres undefined)"
  IC50: "5.11 µM"
- compound: "CC(=O)CC(=O)C1CC(Cl)CCC1=O (centres undefined)"
  IC50: "2.45 µM"
- compound: "CCC1CCC(=O)C(C(=O)CC(C)=O)C1 (centres undefined)"
  IC50: "5.31 µM"
- compound: "CCOC(=O)C1CCC(=O)C(C(=O)CC(C)=O)C1 (centres undefined)"
  IC50: "5.44 µM"
- compound: "CC(=O)CC(=O)C1CC(=O)CCC1=O (centres undefined)"
  IC50: "6.51 µM"
- compound: "CC(=O)CC(=O)C1CC(O)CCC1=O (centres undefined)"
  IC50: "1.21 µM"
- compound: "CC(=O)CC(=O)C1CC(NC(C)=O)CCC1=O (centres undefined)"
  IC50: "2.61 µM"
- compound: "CC(=O)CC(=O)C1CCCCC1=O (centres undefined)"
  IC50: "4.45 µM"
- compound: "CN(Cc1cnc2nc(N)nc(N)c2n1)c1ccc(C(=O)N[C@@H](CCC(=O)O)C(=O)O)cc1 [METHOTREXATE]"
  IC50: "2.33 µM"

---

- measured.target: Toll-like receptor 4 (Homo sapiens, UniProt O00206)
- Sequence (O00206 whole entry): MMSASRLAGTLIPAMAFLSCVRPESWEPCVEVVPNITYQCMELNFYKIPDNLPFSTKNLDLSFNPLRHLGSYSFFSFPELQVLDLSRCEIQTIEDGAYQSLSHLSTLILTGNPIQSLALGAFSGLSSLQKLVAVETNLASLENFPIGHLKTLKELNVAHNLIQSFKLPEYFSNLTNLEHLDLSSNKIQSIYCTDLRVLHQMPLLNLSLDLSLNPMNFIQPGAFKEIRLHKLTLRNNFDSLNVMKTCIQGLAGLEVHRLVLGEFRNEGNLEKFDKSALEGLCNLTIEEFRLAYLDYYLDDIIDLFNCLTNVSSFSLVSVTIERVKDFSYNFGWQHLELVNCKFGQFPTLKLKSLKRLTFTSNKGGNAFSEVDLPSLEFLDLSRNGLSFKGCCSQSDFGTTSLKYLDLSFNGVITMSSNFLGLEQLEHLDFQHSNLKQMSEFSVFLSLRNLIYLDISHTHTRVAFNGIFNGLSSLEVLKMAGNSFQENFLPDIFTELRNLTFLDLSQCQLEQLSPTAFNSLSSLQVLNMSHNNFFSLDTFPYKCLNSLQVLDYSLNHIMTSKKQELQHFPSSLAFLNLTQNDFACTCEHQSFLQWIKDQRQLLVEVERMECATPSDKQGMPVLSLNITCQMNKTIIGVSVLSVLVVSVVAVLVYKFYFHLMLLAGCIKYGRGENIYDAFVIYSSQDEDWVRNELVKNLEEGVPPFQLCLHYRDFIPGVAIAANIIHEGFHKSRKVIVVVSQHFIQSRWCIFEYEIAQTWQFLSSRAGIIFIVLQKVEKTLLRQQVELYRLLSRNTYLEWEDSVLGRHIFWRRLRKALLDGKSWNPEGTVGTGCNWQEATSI
// reported IC50 per item

- molecule: "CCCC1CCC(C2CCC(=O)C(C(=O)CC(C)=O)C2)CC1 (centres undefined)"
  IC50: "1780 nM"
- molecule: "CC(=O)CC(=O)C1CC(N)CCC1=O (centres undefined)"
  IC50: "1030 nM"
- molecule: "CC(=O)CC(=O)C1CC(C)CCC1=O (centres undefined)"
  IC50: "1150 nM"
- molecule: "CC(=O)CC(=O)C1CC(O)CCC1=O (centres undefined)"
  IC50: "430 nM"
